Where do the numbers come from? From patent US10209240B2.

- System: WA09 hES cells
- Assay Info: Phase 2 targeted biomarker assay, ornithine/cystine ratio, 9-point dose response
Readout Type: Targeted Biomarker Assay prediction

Here are 4 molecules together with their reported answers.
Nc1ccn(C[C@@H](CO)OCP(=O)(O)O)c(=O)n1 : TER
CC[C@H](C)C(=O)O[C@H]1C[C@@H](C)C=C2C=C[C@H](C)[C@H](CC[C@@H]3C[C@@H](O)CC(=O)O3)[C@H]21 : NON
CNCCC(Oc1ccc(C(F)(F)F)cc1)c1ccccc1 (centres unmarked) : NON
Cc1ncc(C[n+]2csc(CCO)c2C)c(N)n1 : NON

Pending molecule:
Query block: Provide Targeted Biomarker Assay prediction value for the following molecule: CCN(CC)CCNC(=O)c1cc(Cl)c(N)cc1OC [Metoclopramide]
Result block: NON

---

- Tested on: hES cells
- Assay Info: devTOX computational model predictions (Version 2.0, Version 2.1) from hES cell metabolomics
- Assay type: cell-based, human
- Measurement Context: single dose per treatment (Dose column)
Readout Type: Model Predictions Version 2.0

Study these solved cases before continuing.
CC1(C)S[C@@H]2[C@H](NC(=O)Cc3ccccc3)C(=O)N2[C@H]1C(=O)O : Non
CS(=O)(=O)OCCCCOS(C)(=O)=O : Ter
CC1=C(/C=C/C(C)=C/C=C/C(C)=C/C(=O)O)C(C)(C)CCC1 [All-trans Retinoic Acid] : Ter
NNC(=O)c1ccncc1 : Ter

Query block: # return recorded Model Predictions Version 2.0 for input N[C@@H](Cc1cc(I)c(Oc2cc(I)c(O)c(I)c2)c(I)c1)C(=O)O
Result block: Ter

Query block: Return value of Model Predictions Version 2.0 for input Cc1ncc(C[n+]2csc(CCO)c2C)c(N)n1 , no commentary.
Result block: Non

Query block: # return recorded Model Predictions Version 2.0 for entry CN(Cc1cnc2nc(N)nc(N)c2n1)c1ccc(C(=O)N[C@@H](CCC(=O)O)C(=O)O)cc1 [Methotrexate]
Result block: Ter

Query block: Please look at this compound and report its Model Predictions Version 2.0: O=C1NC(=O)C(c2ccccc2)(c2ccccc2)N1
Result block: Non

---

- Test system: hES cells
- Assay Info: devTOX computational model predictions (Version 2.0, Version 2.1) from hES cell metabolomics
- Type: cell-based, human
- Measurement Context: single dose per treatment (Dose column)
Readout Type: Model Predictions Version 2.1

CC1=C(/C=C/C(C)=C/C=C/C(C)=C\C(=O)O)C(C)(C)CCC1 [13-cis Retinoic Acid] : Ter
CCCC(CCC)C(=O)O : Ter
CC1=C(/C=C/C(C)=C/C=C/C(C)=C/C(=O)O)C(C)(C)CCC1 [All-trans Retinoic Acid] : Ter
CC(=O)CC(c1ccccc1)c1c(O)c2ccccc2oc1=O (stereo not shown) : Ter
Cc1ncc(C[n+]2csc(CCO)c2C)c(N)n1 : Non

Query block: Tell me Model Predictions Version 2.1 reported for CN(Cc1cnc2nc(N)nc(N)c2n1)c1ccc(C(=O)N[C@@H](CCC(=O)O)C(=O)O)cc1 [Methotrexate]
Result block: Ter

Query block: Please give measured Model Predictions Version 2.1 of the following entry: CCN(CC)CCNC(=O)c1cc(Cl)c(N)cc1OC [Metoclopramide]
Result block: Non

Query block: Please supply the value of reported Model Predictions Version 2.1 for the item CC1=C(/C=C/C(C)=C/C=C/C(C)=C/CO)C(C)(C)CCC1
Result block: Non

Query block: Report measured Model Predictions Version 2.1; entry is CN(C)CCOC(C)(c1ccccc1)c1ccccn1 (stereo not shown)
Result block: Non

Query block: Return the recorded Model Predictions Version 2.1 value; entry: NC(=O)N1c2ccccc2C=Cc2ccccc21 [Carbamazepine]
Result block: Ter
